Literature IC50 values, system: UniProt:O75116.
Give the quantity in nM, number only.

Check out these entries, answers already filled in.
Please provide the recorded IC50 for N#Cc1cccc(CC(=O)Nc2ccc3c(c2)[nH]c2cnccc23)c1 , tested on UniProt:O75116.
383

Please provide the recorded IC50 for CC(C)NC(=O)C1Cc2ccc(-c3nccc(Nc4ccc5[nH]ncc5c4)n3)cc2N1 (centres unmarked) , tested on UniProt:O75116.
242

Please provide the recorded IC50 for COc1cc(C(=O)NCc2cccc(S(N)(=O)=O)c2)ccc1-c1cn[nH]c1 , tested on UniProt:O75116.
0.99

Others:
Please provide the recorded IC50 for COc1cccc(CNC(=O)c2ccc(-c3cn[nH]c3)c(F)c2)c1 , tested on UniProt:O75116.
18.9

* * *

Literature pIC50 values, system: ROCK2 (Homo sapiens, UniProt O75116).
Sequence (O75116 whole entry, species assumed): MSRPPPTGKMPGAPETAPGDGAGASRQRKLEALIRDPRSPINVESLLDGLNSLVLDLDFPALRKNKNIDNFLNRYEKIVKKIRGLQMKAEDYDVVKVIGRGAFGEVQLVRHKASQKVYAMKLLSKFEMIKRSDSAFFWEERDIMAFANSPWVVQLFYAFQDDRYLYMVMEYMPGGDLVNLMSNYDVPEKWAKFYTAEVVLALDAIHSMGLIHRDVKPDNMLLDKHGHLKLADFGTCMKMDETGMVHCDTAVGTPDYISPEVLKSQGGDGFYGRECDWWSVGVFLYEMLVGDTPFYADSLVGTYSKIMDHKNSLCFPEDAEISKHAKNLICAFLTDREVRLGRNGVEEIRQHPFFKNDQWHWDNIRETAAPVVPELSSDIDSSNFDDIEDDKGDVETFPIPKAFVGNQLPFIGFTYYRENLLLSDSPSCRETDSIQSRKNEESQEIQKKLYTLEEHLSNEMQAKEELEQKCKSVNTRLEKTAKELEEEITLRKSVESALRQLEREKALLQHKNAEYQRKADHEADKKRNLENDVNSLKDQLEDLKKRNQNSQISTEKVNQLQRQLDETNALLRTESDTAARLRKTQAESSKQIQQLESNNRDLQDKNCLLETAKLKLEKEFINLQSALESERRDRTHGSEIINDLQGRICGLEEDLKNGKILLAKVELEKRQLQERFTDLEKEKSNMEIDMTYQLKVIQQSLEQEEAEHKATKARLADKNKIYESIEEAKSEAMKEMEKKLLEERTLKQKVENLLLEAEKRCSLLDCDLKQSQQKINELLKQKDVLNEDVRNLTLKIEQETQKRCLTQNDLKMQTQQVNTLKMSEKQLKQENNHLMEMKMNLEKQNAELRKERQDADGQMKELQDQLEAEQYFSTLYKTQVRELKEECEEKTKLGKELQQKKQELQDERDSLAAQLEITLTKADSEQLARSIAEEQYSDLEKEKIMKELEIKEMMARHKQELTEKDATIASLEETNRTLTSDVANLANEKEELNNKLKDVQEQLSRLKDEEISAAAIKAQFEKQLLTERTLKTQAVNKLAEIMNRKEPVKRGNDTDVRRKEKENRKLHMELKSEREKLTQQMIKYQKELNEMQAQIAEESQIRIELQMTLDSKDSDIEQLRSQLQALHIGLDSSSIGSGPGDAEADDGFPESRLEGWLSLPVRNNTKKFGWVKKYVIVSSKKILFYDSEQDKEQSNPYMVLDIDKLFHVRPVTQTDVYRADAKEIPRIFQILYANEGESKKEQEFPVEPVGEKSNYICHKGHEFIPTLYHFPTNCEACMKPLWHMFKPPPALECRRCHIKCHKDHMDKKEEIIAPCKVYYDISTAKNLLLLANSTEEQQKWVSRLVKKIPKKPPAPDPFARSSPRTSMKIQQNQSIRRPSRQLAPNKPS
Note on pIC50: it is the negative log10 of concentration, concentration in mol/L.

Check out these entries, answers already filled in.
Please provide the recorded pIC50 for CC(=O)c1cc(C(=O)N[C@H](C)c2ccccc2)ccc1-c1cn[nH]c1 , tested on ROCK2 (Homo sapiens, UniProt O75116).
6.21

Please provide the recorded pIC50 for COc1cc(N2CCC3(CCN(C(=O)c4ccc(N5CCN(Cc6nccs6)CC5)cc4)CC3)C2=O)ccc1-c1cn[nH]c1 , tested on ROCK2 (Homo sapiens, UniProt O75116).
8.57

Please provide the recorded pIC50 for CN1CCc2ccc(NC(=O)c3cccc([C@@H](CO)NC(=O)c4cccc(-c5ccn[nH]5)c4)c3)cc2C1 , tested on ROCK2 (Homo sapiens, UniProt O75116).
7.14

Others:
Please provide the recorded pIC50 for COc1cc(C(=O)NC(CO)c2ccccc2F)ccc1-c1cn[nH]c1 (stereo not drawn) , tested on ROCK2 (Homo sapiens, UniProt O75116).
8.53

Please provide the recorded pIC50 for Cn1ncc2cc(C(N)=O)c(O[C@H]3C[C@@]4(C[C@H](NC(=O)c5cccc(CO)n5)C4)C3)nc21 (stereo partly drawn) , tested on ROCK2 (Homo sapiens, UniProt O75116).
7.28

Please provide the recorded pIC50 for COc1cccc2c1nc(NC(=O)Cc1ccc(Oc3ncccc3C(N)=O)c(F)c1)n2CC1CC1 , tested on ROCK2 (Homo sapiens, UniProt O75116).
7.80

Please provide the recorded pIC50 for [H][C@]1(Oc2nc(C)sc2C(N)=O)C[C@]2(C[C@@H](NC(=O)c3cnn(-c4ccc(Cl)cc4)c3C)C2)C1 (stereo partly drawn) , tested on ROCK2 (Homo sapiens, UniProt O75116).
7.37

* * *

Literature pIC50 values, system: UniProt:O75116.
Note on pIC50: it is the negative log10 of concentration, concentration in mol/L.

Check out these entries, answers already filled in.
# input molecule: COc1ccc2c(OC)ccc(C(=O)N3CCC4(CC3)CCN(c3ccc(-c5cn[nH]c5)c(OC)c3)C4=O)c2c1 ; wanted: its pIC50
6.73

# input molecule: CC1(C#N)CN(C(=O)c2cc3ccc(-c4nccc(Nc5ccc(-c6cn[nH]c6)cc5)n4)cc3[nH]2)C1 ; wanted: its pIC50
6.85

Others:
# input molecule: CN(C)c1ccc(NC(=O)c2cc3ccc(-c4nccc(Nc5ccc6[nH]ncc6c5)n4)cc3[nH]2)cn1 ; wanted: its pIC50
7.04
